Reported Papp values are given for each entry in this list.
assay: passive permeability, PAMPA, ADME assay (AID 1508612); settings: pH 7.4, 30.0 min, 50.0 µM
measured_attribute: Papp (×10⁻⁶ cm/s)

[[record]]
compound = "NC(=O)C1CCN(c2nc(-c3ccccc3)cs2)CC1"
comparison_sign = "="
numeric_readout = 598

[[record]]
compound = "O=C(Cc1ccc(-c2csc(Nc3ccc(F)cc3)n2)s1)N1CCOCC1"
comparison_sign = ">"
numeric_readout = 1000

[[record]]
compound = "COc1cccc(CNc2ccc(S(=O)(=O)Nc3ccc(C)nc3)cc2)c1O"
comparison_sign = "="
numeric_readout = 973

[[record]]
compound = "CN(C)C(=O)c1cc2cnc(Nc3ccc(N4CCNCC4)cn3)nc2n1C1CCCC1"
comparison_sign = "="
numeric_readout = 138

[[record]]
compound = "CCOc1ccc(C2c3c(oc4ccc(C)cc4c3=O)C(=O)N2CCCN(C)C)cc1 (stereo not given)"
comparison_sign = "="
numeric_readout = 516

[[record]]
compound = "CC1=C(C(=O)NC2CCCCC2)C(c2ccccc2Br)N=C(Nc2nc3ccccc3o2)N1 (stereo not given)"
comparison_sign = "="
numeric_readout = 734

[[record]]
compound = "CCOC(=O)c1ccc(-n2cnc3cc(C(=O)N4CCCCC4)ccc32)cc1"
comparison_sign = ">"
numeric_readout = 1000

[[record]]
compound = "Cc1ccc(S(=O)(=O)Nc2cnccc2C(=O)NCc2ccccc2)cc1"
comparison_sign = "="
numeric_readout = 27.7

[[record]]
compound = "N[C@H]1CN(c2c(F)cc3c(=O)c(C(=O)O)cn(C4C[C@@H]4F)c3c2Cl)CC12CC2 (stereo not given in full)"
comparison_sign = "<"
numeric_readout = 1

[[record]]
compound = "Oc1cccc(-c2nc(N3CCOCC3)c3oc4ncccc4c3n2)c1"
comparison_sign = "="
numeric_readout = 537


---

assay: passive permeability, PAMPA, ADME assay (AID 1508612); conditions: pH 7.4, 30.0 min, 50.0 µM
measured_attribute: Papp (×10⁻⁶ cm/s)

[[record]]
compound = "Nc1nc2c(s1)C(c1cc(Cl)ccc1F)CC(=O)N2 (stereo not given)"
comparison_sign = "="
numeric_readout = 476

[[record]]
compound = "Cc1nsc(N)c1C(=O)N(C)CCOc1ccccc1Cl"
comparison_sign = "="
numeric_readout = 389

[[record]]
compound = "CCOc1ccc(Nc2nc(C)c(NC(=O)c3ccc(C)cc3)c(Nc3ccc(OCC)cc3)n2)cc1"
comparison_sign = "="
numeric_readout = 211

[[record]]
compound = "COc1cccc(NS(=O)(=O)c2ccc(NCc3cccc(OC)c3O)cc2)c1"
comparison_sign = "="
numeric_readout = 603

[[record]]
compound = "N#Cc1ccc(C(=O)Nc2ccc(Cl)c(-c3nc4cc(Cl)ccc4o3)c2)c(F)c1"
comparison_sign = "<"
numeric_readout = 1


---

experiment: passive permeability, PAMPA, ADME assay (AID 1508612); settings: pH 7.4, 30.0 min, 50.0 µM
Measured Papp by item
measured_attribute: Papp (×10⁻⁶ cm/s)

[[record]]
query_smiles = "CCOC(=O)c1ccc(-n2c(C)cc(-c3nnc4n3CCCCC4)c2C)cc1"
unit_name = "×10⁻⁶ cm/s"
comparison_sign = "="
numeric_readout = 353

[[record]]
query_smiles = "O=c1c2ccccc2nc(/C=C/c2cccnc2)n1Cc1ccccc1"
unit_name = "×10⁻⁶ cm/s"
comparison_sign = ">"
numeric_readout = 1000

[[record]]
query_smiles = "Cc1ccc(S(=O)(=O)Nc2cc(Cl)ccc2C(=O)Nc2nc(-c3ccccc3)cs2)cc1"
unit_name = "×10⁻⁶ cm/s"
comparison_sign = "="
numeric_readout = 23.4

[[record]]
query_smiles = "CCCCCCOc1ccc(OC(=O)c2ccncc2)cc1"
unit_name = "×10⁻⁶ cm/s"
comparison_sign = "="
numeric_readout = 600

[[record]]
query_smiles = "CC[C@H]1C=CC=CC[C@@H](C)[C@H](O)[C@@](C)(O)C(=O)[C@@H](C)[C@H](O)[C@@H](C)C(=O)[C@@H](C)[C@H](O)[C@@H](C)C=CC(=O)O[C@@H]2[C@@H](C)[C@H](CC1)O[C@]1(CC[C@H](C)[C@H](C[C@@H](C)O)O1)[C@H]2C"
unit_name = "×10⁻⁶ cm/s"
comparison_sign = "<"
numeric_readout = 1


---

assay: passive permeability, PAMPA, ADME assay (AID 1508612); settings: pH 7.4, 30.0 min, 50.0 µM
// returns 0.0 unless Papp is strictly below 200 ×10⁻⁶ cm/s, in which case 1.0

[[record]]
query_smiles = "Nc1ccccc1OCCn1c(CCNC(=O)C2CCCCC2)nc2ccccc21"
label_value = 0.0

[[record]]
query_smiles = "c1cc(-c2cc(-c3ccncc3)c3cncn3c2)c2[nH]ccc2c1"
label_value = 1.0

[[record]]
query_smiles = "Cc1nc2sccn2c(=O)c1S(=O)(=O)Nc1ccc(N2CCN(C)CC2)cc1"
label_value = 0.0

[[record]]
query_smiles = "Cc1noc([C@@H]2CN(C(=O)c3nn(C)c4ccccc34)C[C@H]2CO)n1"
label_value = 1.0

[[record]]
query_smiles = "COc1ccc(C[C@@H]2C(=O)N[C@H](C)C(=O)N(C)[C@@H]3C(=O)N(C)[C@@H](Cc4ccc(O)c(c4)Oc4ccc(cc4)[C@H]3O)C(=O)N[C@@H](C)C(=O)N[C@H](C)C(=O)N2C)cc1"
label_value = 1.0

[[record]]
query_smiles = "Cc1cccc2nc(-c3ccccn3)c(Nc3ccc(F)cc3)n12"
label_value = 0.0

[[record]]
query_smiles = "COc1cccc(C(=O)NCCSc2c(-c3ccc(F)cc3)[nH]c3ccccc23)c1OC"
label_value = 1.0

[[record]]
query_smiles = "COc1ccc(NC(=O)c2[nH]c(C)c(C(C)=O)c2C)cc1[S+](=O)([O-])Nc1ccccc1C#N"
label_value = 1.0

[[record]]
query_smiles = "Cc1cnc(NC(=O)c2ccc(-c3cccc([N+](=O)[O-])c3)o2)s1"
label_value = 1.0


---

test: passive permeability, PAMPA, ADME assay (AID 1508612); conditions: pH 7.4, 30.0 min, 50.0 µM
Recorded measurements of Papp, one per entry
measured_attribute: Papp (×10⁻⁶ cm/s)

[[record]]
molecule = "Fc1cccc(Nc2nc(-c3ccncc3)nc3ccccc23)c1F"
comparison_sign = "="
numeric_readout = 799

[[record]]
molecule = "COc1cccc(CNc2ccc(S(=O)(=O)Nc3ccc(N4CCNCC4)nc3)cc2)c1O"
comparison_sign = "="
numeric_readout = 10.7

[[record]]
molecule = "O=c1[nH]c(N2CCOCC2)nc2c1CCN(Cc1cc(Cl)ccc1F)CC2"
comparison_sign = ">"
numeric_readout = 1000

[[record]]
molecule = "Cn1cc(Nc2cnccc2C(=O)O)c2cccnc21"
comparison_sign = "="
numeric_readout = 3.2

[[record]]
molecule = "O=[N+]([O-])c1cccc(CNc2ccc(S(=O)(=O)Nc3nccs3)cc2)c1O"
comparison_sign = "="
numeric_readout = 28.6

[[record]]
molecule = "CC1CCN(C(=O)c2ccc(-c3ccc(N4CCSCC4)nc3)cc2)CC1"
comparison_sign = ">"
numeric_readout = 1000

[[record]]
molecule = "Nc1nc(Nc2ccc(S(N)(=O)=O)cc2)nn1C(=O)c1c(F)cccc1F"
comparison_sign = "="
numeric_readout = 1.61

[[record]]
molecule = "CS(=O)(=O)c1cccc(-c2csc(N3CCC(C(N)=O)CC3)n2)c1"
comparison_sign = "="
numeric_readout = 49.1

[[record]]
molecule = "Nc1cc(CN2C(=O)c3ccccc3C2=O)cc(Cl)c1O"
comparison_sign = "="
numeric_readout = 352

[[record]]
molecule = "COc1ccc2[nH]c(S(=O)Cc3ncc(C)c(OC)c3C)nc2n1 (stereo not drawn)"
comparison_sign = "="
numeric_readout = 183

[[record]]
molecule = "Cc1ccc(NC(=O)c2cc(-c3ccc[nH]3)n[nH]2)cc1F"
comparison_sign = "="
numeric_readout = 157

[[record]]
molecule = "O=C1Nc2ccccc2C1Cc1cc(Cl)c(O)c(Cl)c1 (stereo not drawn)"
comparison_sign = "="
numeric_readout = 8.8

[[record]]
molecule = "Nc1ccccc1CNc1ccc(S(=O)(=O)Nc2nccs2)cc1"
comparison_sign = "="
numeric_readout = 1.09

[[record]]
molecule = "CCOc1ccc(-c2csc(N3CCC(C(N)=O)CC3)n2)cc1"
comparison_sign = ">"
numeric_readout = 1000

[[record]]
molecule = "CCOC(=O)N1CCN(Cc2nc3cc(NC(=O)CC(C)C)ccc3n2C(C)C)CC1"
comparison_sign = "="
numeric_readout = 613

[[record]]
molecule = "CN(C)c1cccc(-c2ccnc(N3CCC(C(N)=O)CC3)n2)c1"
comparison_sign = "="
numeric_readout = 333

[[record]]
molecule = "Cc1ccc(S(=O)(=O)Nc2ncccc2C(=O)Nc2nc(-c3ccccc3)cs2)cc1"
comparison_sign = "="
numeric_readout = 814

[[record]]
molecule = "O=C(O)c1ccccc1C(=O)Nc1ccc(-c2ccccc2)cc1"
comparison_sign = "="
numeric_readout = 3.49

[[record]]
molecule = "CC(=O)Nc1ccc(C(=O)Nc2ccc3c(c2)N(C2CCCC2)C(=O)c2ccccc2S3)cc1"
comparison_sign = "="
numeric_readout = 138

[[record]]
molecule = "O=C1Nc2cc(Cl)ccc2Nc2cscc21"
comparison_sign = "="
numeric_readout = 478

[[record]]
molecule = "Cc1[nH]c2ccccc2c1CN1CCN(c2ccccn2)CC1"
comparison_sign = ">"
numeric_readout = 1000

[[record]]
molecule = "CC(C)Oc1ccc(-c2csc(N3CCC(C(N)=O)CC3)n2)cc1"
comparison_sign = ">"
numeric_readout = 1000

[[record]]
molecule = "CCCCCn1c(CCCNC(=O)c2ccccc2OC)nc2ccccc21"
comparison_sign = ">"
numeric_readout = 1000

